All values here come from patent US20260374766A1.

Some compounds, each annotated with its measured AC50.
Molecular target: p53 Y220C (Homo sapiens, UniProt P04637, Y220C)
Assay: Luciferase Reporter Assay (Luc), p53 response element, NClH1299 cells with inducible p53 Y220C
Type: cell-based
Conditions: luciferase reporter, NClH1299 inducible p53 Y220C, 6 hour; read-out: Luc P53 Y220C AC50

For orientation, consider the following solved cases.
CNC(=O)c1ccc(OC)c(NCC#Cc2nc3c(N[C@@H]4CNC[C@@H]4F)cccn3c2SC(F)(F)F)c1; < 750 nM
CNC(=O)c1ccc(NCC#Cc2nc3c(N[C@@H]4CCN(C)C[C@@H]4F)cccn3c2SC(F)(F)F)cc1; < 750 nM
CNC(=O)c1ccc(OC)c(NCC#Cc2cc3c(N[C@@H]4CCN(C)C[C@@H]4F)nccn3c2SC(F)(F)F)c1; < 750 nM

Let's switch to this compound now.
The recorded AC50 for `CNC(=O)c1ccc(OC)c(NCC#Cc2nn3c(N[C@@H]4CCNC[C@@H]4F)cccc3c2SC(F)F)c1` is < 750 nM
